Molecular target: recombinant human GR (Homo sapiens)
Construct: purchased Panvera/Invitrogen P2812 (kit P2893)
Experiment: Human Glucocorticoid Receptor (GR) Assay (fluorescence polarization, Panvera/Invitrogen kit)
Assay type: binding
Details: fluorescence polarization; GS Red tracer; 2 hours at room temperature; 100% control 10 μM Dexamethasone; read-out: Inhibition of GR binding, IC50
Returns: string. Value is Satisfied if measured IC50 is below 4 nM, and Not satisfied if it is greater than or equal to it.

Please determine if C[C@]12Cc3cnn(-c4ccnnc4)c3C=C1CC[C@@H]1[C@@H]2[C@@H](O)C[C@@]2(C)[C@H]1CC[C@]2(OC(=O)C1CC1)C(=O)OCC#N is below 4 nM in terms of IC50.
Satisfied

----------
Biological target: recombinant human GR (Homo sapiens)
Construct: purchased Panvera/Invitrogen P2812 (kit P2893)
Test: Human Glucocorticoid Receptor (GR) Assay (fluorescence polarization, Panvera/Invitrogen kit)
Format: binding
Conditions: fluorescence polarization; GS Red tracer; 2 hours at room temperature; 100% control 10 μM Dexamethasone; read-out: Inhibition of GR binding, IC50
value type: pIC50
Give only the number. pIC50 is defined as minus log10 of concentration in molar units.

Consider the following illustrative entries.
| smiles representation | value type | recorded number |
| --- | --- | --- |
| CCC(=O)O[C@]1(C(=O)SCCOC(C)=O)CC[C@H]2[C@@H]3CCC4=Cc5c(cnn5-c5ccc(F)cc5)C[C@]4(C)[C@H]3[C@@H](O)C[C@@]21C | pIC50 | 8.33 |
| C[C@]12Cc3cnn(-c4ccc(F)cc4)c3C=C1CC[C@@H]1[C@@H]2[C@@H](O)C[C@@]2(C)[C@H]1CC[C@]2(OC(=O)c1ccoc1)C(=O)SCC#N | pIC50 | 8.24 |

Lab note: measured pIC50 of CCC(=O)O[C@]1(C(=O)SCC#N)CC[C@H]2[C@@H]3CCC4=Cc5c(cnn5-c5ccc(F)nc5)C[C@]4(C)[C@@]3(F)[C@@H](O)C[C@@]21C was 8.64

----------
Target: recombinant human GR (Homo sapiens, UniProt P04150)
Construct: purchased Panvera/Invitrogen P2812 (kit P2893)
Sequence (P04150 whole entry): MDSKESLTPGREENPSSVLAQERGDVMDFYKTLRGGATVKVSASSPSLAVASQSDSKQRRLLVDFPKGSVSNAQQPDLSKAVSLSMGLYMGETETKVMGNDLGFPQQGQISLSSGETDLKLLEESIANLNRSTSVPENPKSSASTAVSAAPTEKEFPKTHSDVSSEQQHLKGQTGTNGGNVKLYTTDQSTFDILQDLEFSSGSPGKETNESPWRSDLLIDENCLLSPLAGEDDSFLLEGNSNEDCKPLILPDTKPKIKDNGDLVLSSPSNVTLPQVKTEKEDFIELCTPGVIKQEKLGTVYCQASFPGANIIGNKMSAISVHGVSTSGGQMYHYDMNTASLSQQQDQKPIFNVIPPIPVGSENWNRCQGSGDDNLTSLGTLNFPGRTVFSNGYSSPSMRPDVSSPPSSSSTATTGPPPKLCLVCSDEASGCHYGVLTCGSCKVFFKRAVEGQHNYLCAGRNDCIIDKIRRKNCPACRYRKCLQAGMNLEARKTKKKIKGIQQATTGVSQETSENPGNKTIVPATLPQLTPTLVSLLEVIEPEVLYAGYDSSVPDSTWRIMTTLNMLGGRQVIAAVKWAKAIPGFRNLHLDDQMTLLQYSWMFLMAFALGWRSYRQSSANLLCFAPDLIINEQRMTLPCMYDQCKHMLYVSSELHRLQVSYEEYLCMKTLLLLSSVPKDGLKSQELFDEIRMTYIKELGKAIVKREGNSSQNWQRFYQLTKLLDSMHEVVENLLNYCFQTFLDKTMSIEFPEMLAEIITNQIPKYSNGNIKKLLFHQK
Experiment: Human Glucocorticoid Receptor (GR) Assay (fluorescence polarization, Panvera/Invitrogen kit)
Format: binding
Conditions: fluorescence polarization; GS Red tracer; 2 hours at room temperature; 100% control 10 μM Dexamethasone; read-out: Inhibition of GR binding, IC50
value type: IC50 (nM)
Write the answer as a number in nM, unit excluded.

| smiles representation | recorded number |
| --- | --- |
| C[C@]12Cc3cnn(-c4ccc(F)cc4)c3C=C1CC[C@@H]1[C@@H]2[C@@H](O)C[C@@]2(C)[C@H]1CC[C@]2(OC(=O)c1ccco1)C(=O)SCC#N | 5.6 |

Lab note: measured IC50 of C[C@]12Cc3cnn(-c4cc(F)cc(F)c4)c3C=C1CC[C@@H]1[C@@H]2[C@@H](O)C[C@@]2(C)[C@H]1CC[C@]2(OC(=O)c1ccco1)C(=O)SCC#N was 8.2

----------
Target: recombinant human GR (Homo sapiens, UniProt P04150)
Construct: purchased Panvera/Invitrogen P2812 (kit P2893)
Experiment: Human Glucocorticoid Receptor (GR) Assay (fluorescence polarization, Panvera/Invitrogen kit)
Format: binding
Details: fluorescence polarization; GS Red tracer; 2 hours at room temperature; 100% control 10 μM Dexamethasone; read-out: Inhibition of GR binding, IC50
value type: IC50 (nM)
Write the answer as a number in nM, unit excluded.

Consider the following illustrative entries.
| smiles representation | value unit | IC50 |
| --- | --- | --- |
| C[C@]12Cc3cnn(-c4ccc(F)cc4)c3C=C1CC[C@H]1[C@@H]3CC[C@](OC(=O)c4ccco4)(C(=O)SCC#N)[C@@]3(C)C[C@H](O)[C@@]12F | nM | 3.3 |
| CSCOC(=O)[C@@]1(OCSC)CC[C@H]2[C@@H]3CCC4=Cc5c(cnn5-c5ccc(F)cc5)C[C@]4(C)[C@H]3[C@@H](O)C[C@@]21C | nM | 7 |
| COC(=O)c1cccc(-n2ncc3c2C=C2CC[C@@H]4[C@H]([C@@H](O)C[C@@]5(C)[C@H]4CC[C@]5(OC(=O)c4ccco4)C(=O)SCF)[C@@]2(C)C3)c1 | nM | 6.6 |
| COCC(=O)O[C@]1(C(=O)SCC#N)CC[C@H]2[C@@H]3CCC4=Cc5c(cnn5-c5ccc(F)nc5)C[C@]4(C)[C@@]3(F)[C@@H](O)C[C@@]21C | nM | 1.4 |

# input for lookup
Lab note: measured IC50 of CSCOC(=O)[C@@]1(OC(C)=O)CC[C@H]2[C@@H]3CCC4=Cc5c(cnn5-c5ccc(F)cc5)C[C@]4(C)[C@H]3[C@@H](O)C[C@@]21C was 4.6

----------
Target: recombinant human GR (Homo sapiens, UniProt P04150)
Construct: purchased Panvera/Invitrogen P2812 (kit P2893)
Test: Human Glucocorticoid Receptor (GR) Assay (fluorescence polarization, Panvera/Invitrogen kit)
Assay type: binding
Conditions: fluorescence polarization; GS Red tracer; 2 hours at room temperature; 100% control 10 μM Dexamethasone; read-out: Inhibition of GR binding, IC50
Below, each entry is listed alongside its reported IC50.
Write the answer as a number in nM, unit excluded.

| compound | recorded number |
| --- | --- |
| CSCO[C@]1(C(=O)SCF)CC[C@H]2[C@@H]3CCC4=Cc5c(cnn5-c5ccc(F)cc5)C[C@]4(C)[C@H]3[C@@H](O)C[C@@]21C | 4.7 |
| C=Cc1cccc(-n2ncc3c2C=C2CC[C@@H]4[C@H]([C@@H](O)C[C@@]5(C)[C@H]4CC[C@]5(OC(=O)c4ccco4)C(=O)SCF)[C@@]2(C)C3)c1 | 17 |
| C[C@]12Cc3cnn(-c4ccc(F)nc4)c3C=C1CC[C@H]1[C@@H]3CC[C@](OC(=O)c4ccco4)(C(=O)SCC#N)[C@@]3(C)C[C@H](O)[C@@]12F | 2.2 |

Lab note: measured IC50 of C[C@]12Cc3cnn(-c4ccc(F)nc4)c3C=C1CC[C@H]1[C@@H]3CC[C@](OC(=O)c4cocn4)(C(=O)SCC#N)[C@@]3(C)C[C@H](O)[C@@]12F was 3.6

Lab note: measured IC50 of CSC(=O)[C@@]1(OC(=O)c2ccco2)CC[C@H]2[C@@H]3CCC4=Cc5c(cnn5-c5ccc(F)cc5)C[C@]4(C)[C@H]3[C@@H](O)C[C@@]21C was 5.8

Lab note: measured IC50 of CC(=O)O[C@]1(C(=O)SCC#N)CC[C@H]2[C@@H]3CCC4=Cc5c(cnn5-c5ccc(F)cc5)C[C@]4(C)[C@H]3[C@@H](O)C[C@@]21C was 4.1

Lab note: measured IC50 of C[C@]12Cc3cnn(-c4ccc(F)cc4)c3C=C1CC[C@@H]1[C@@H]2[C@@H](O)C[C@@]2(C)[C@H]1CC[C@]2(OC(=O)C1CCCCO1)C(=O)SCC#N (single isomer, unassigned) was 4.5

Lab note: measured IC50 of C[C@]12Cc3cnn(-c4ccc(F)cc4)c3C=C1CC[C@@H]1[C@@H]2[C@@H](O)C[C@@]2(C)[C@H]1CC[C@]2(OC(=O)C1CCCOC1)C(=O)SCC#N (single isomer, unassigned) was 3.8

Lab note: measured IC50 of Cn1cccc1C(=O)O[C@]1(C(=O)SCC#N)CC[C@H]2[C@@H]3CCC4=Cc5c(cnn5-c5ccc(F)cc5)C[C@]4(C)[C@H]3[C@@H](O)C[C@@]21C was 11

Lab note: measured IC50 of C=CCSC(=O)[C@@]1(OC(=O)CC)CC[C@H]2[C@@H]3CCC4=Cc5c(cnn5-c5ccc(F)cc5)C[C@]4(C)[C@H]3[C@@H](O)C[C@@]21C was 13

----------
Molecular target: recombinant human GR (Homo sapiens, UniProt P04150)
Construct: purchased Panvera/Invitrogen P2812 (kit P2893)
Assay: Human Glucocorticoid Receptor (GR) Assay (fluorescence polarization, Panvera/Invitrogen kit)
Type: binding
Conditions: fluorescence polarization; GS Red tracer; 2 hours at room temperature; 100% control 10 μM Dexamethasone; read-out: Inhibition of GR binding, IC50
Below, each entry is listed alongside its reported log10(IC50).
Transform log10 | Measure IC50 | Unit nM

Consider the following illustrative entries.
| compound | value type | recorded number |
| --- | --- | --- |
| C[C@]12Cc3cnn(-c4cnccn4)c3C=C1CC[C@@H]1[C@@H]2[C@@H](O)C[C@@]2(C)[C@H]1CC[C@]2(OC(=O)C1CC1)C(=O)SCCO [Example 190] | log10(IC50) | 0.57 |
| C[C@]12Cc3cnn(-c4ccc(F)c(F)c4)c3C=C1CC[C@@H]1[C@@H]2[C@@H](O)C[C@@]2(C)[C@H]1CC[C@]2(OC(=O)c1ccco1)C(=O)SCC#N [Example 103] | log10(IC50) | 0.81 |
| Cc1nnsc1C(=O)O[C@]1(C(=O)SCF)CC[C@H]2[C@@H]3CCC4=Cc5c(cnn5-c5ccc(F)cc5)C[C@]4(C)[C@H]3[C@@H](O)C[C@@]21C [Example 4] | log10(IC50) | 0.77 |
| Cc1occc1C(=O)O[C@]1(C(=O)SCC#N)CC[C@H]2[C@@H]3CCC4=Cc5c(cnn5-c5ccc(F)cc5)C[C@]4(C)[C@H]3[C@@H](O)C[C@@]21C [Example 53] | log10(IC50) | 0.95 |
| CCC(=O)O[C@]1(C(=O)SCCC#N)CC[C@H]2[C@@H]3CCC4=Cc5c(cnn5-c5ccc(F)cc5)C[C@]4(C)[C@H]3[C@@H](O)C[C@@]21C [Example 16] | log10(IC50) | 0.53 |

Lab note: measured log10(IC50) of CNC(=O)[C@@]1(O)CC[C@H]2[C@@H]3CCC4=Cc5c(cnn5-c5ccc(F)cc5)C[C@]4(C)[C@H]3[C@@H](O)C[C@@]21C [Example 70] was 0.58

Lab note: measured log10(IC50) of C=CCOCc1cc(-n2ncc3c2C=C2CC[C@@H]4[C@H]([C@@H](O)C[C@@]5(C)[C@H]4CC[C@]5(OC(=O)c4ccco4)C(=O)SCC#N)[C@@]2(C)C3)ccc1F [Example 77] was 1.34

Lab note: measured log10(IC50) of CCC(=O)O[C@]1(C(=O)SCC#N)CC[C@H]2[C@@H]3CCC4=Cc5c(cnn5-c5ccc(F)c(C(=O)SCC#N)c5)C[C@]4(C)[C@H]3[C@@H](O)C[C@@]21C [Example 174] was 1.53

Lab note: measured log10(IC50) of C[C@]12Cc3cnn(-c4ccc(F)cc4)c3C=C1CC[C@@H]1[C@@H]2[C@@H](O)C[C@@]2(C)[C@H]1CC[C@]2(OC(=O)c1cocn1)C(=O)SCF [Example 45] was 0.53

Lab note: measured log10(IC50) of C[C@]12Cc3cnn(-c4ccc(F)cc4)c3C=C1CC[C@@H]1[C@@H]2[C@@H](O)C[C@@]2(C)[C@H]1CC[C@]2(OC(=O)c1ccco1)C(=O)SCC(N)=O [Example 90] was 0.66

Lab note: measured log10(IC50) of Cc1ncsc1C(=O)O[C@]1(C(=O)OCC#N)CC[C@H]2[C@@H]3CCC4=Cc5c(cnn5-c5ccc(F)cc5)C[C@]4(C)[C@H]3[C@@H](O)C[C@@]21C [Example 9] was 0.97

Lab note: measured log10(IC50) of C[C@]12Cc3cnn(-c4ccc(F)cc4)c3C=C1CC[C@@H]1[C@@H]2[C@@H](O)C[C@@]2(C)[C@H]1CC[C@]2(OC(=O)c1nccs1)C(=O)SCC#CCO [Example 41] was 0.61

Lab note: measured log10(IC50) of C[C@]12Cc3cnn(-c4cnccn4)c3C=C1CC[C@@H]1[C@@H]2[C@@H](O)C[C@@]2(C)[C@H]1CC[C@]2(OC(=O)C1CC1)C(=O)SCC#N [Example 189] was 0.70

Lab note: measured log10(IC50) of COCSC(=O)[C@@]1(OC(=O)c2ccco2)CC[C@H]2[C@@H]3CCC4=Cc5c(cnn5-c5ccc(F)cc5)C[C@]4(C)[C@H]3[C@@H](O)C[C@@]21C [Example 93] was 0.75

Lab note: measured log10(IC50) of C[C@]12Cc3cnn(-c4ccc(F)nc4)c3C=C1CC[C@@H]1[C@@H]2[C@@H](O)C[C@@]2(C)[C@H]1CC[C@]2(OC(=O)C1CC1)C(=O)SCCO [Example 155] was 0.28

Lab note: measured log10(IC50) of COCC(=O)O[C@]1(C(=O)SCC(C)=O)CC[C@H]2[C@@H]3CCC4=Cc5c(cnn5-c5ccc(F)cc5)C[C@]4(C)[C@H]3[C@@H](O)C[C@@]21C [Example 33] was 0.43

Lab note: measured log10(IC50) of C[C@]12Cc3cnn(-c4ccccn4)c3C=C1CC[C@@H]1[C@@H]2[C@@H](O)C[C@@]2(C)[C@H]1CC[C@]2(OC(=O)c1ccco1)C(=O)OCC#N [Example 105] was 0.79

Lab note: measured log10(IC50) of COCC(=O)O[C@]1(C(=O)SCF)CC[C@H]2[C@@H]3C[C@H](C)C4=Cc5c(cnn5-c5ccc(F)cc5)C[C@]4(C)[C@H]3[C@@H](O)C[C@@]21C [Example 216] was 0.94

Lab note: measured log10(IC50) of COCC(=O)O[C@]1(C(=O)SCF)CC[C@H]2[C@@H]3CCC4=Cc5c(cnn5-c5ccc(F)nc5)C[C@]4(C)[C@@]3(F)[C@@H](O)C[C@@]21C [Example 206] was 0.40

Lab note: measured log10(IC50) of COCC(=O)O[C@]1(C(=O)SCCO)CC[C@H]2[C@@H]3CCC4=Cc5c(cnn5-c5ccc(F)cc5)C[C@]4(C)[C@H]3[C@@H](O)C[C@@]21C [Example 32] was 0.20
